tested on: Salmonella; assay: Antibacterial activity against Salmonella 21.3 after 24 hr by disk diffusion method; assay type: functional; further: test concentration or dose not given here
Some molecules, each annotated with its measured diameter of the inhibition zone (DIZ).
Experimental readout: diameter of the inhibition zone (DIZ)

>>> assay_value("CC1(C)CC(=O)C2=C(C1)N(c1ccccc1C#N)C1=C(C(=O)CC(C)(C)C1)C2c1cccc(C2C3=C(CC(C)(C)CC3=O)N(c3ccccc3C#N)C3=C2C(=O)CC(C)(C)C3)c1")
"9 mm"
>>> assay_value("CC1(C)CC(=O)C2=C(C1)N(c1ccc(Cl)cc1)C1=C(C(=O)CC(C)(C)C1)C2c1ccc(C2C3=C(CC(C)(C)CC3=O)N(c3ccc(Cl)cc3)C3=C2C(=O)CC(C)(C)C3)cc1")
"12 mm"
>>> assay_value("N#Cc1cccc(N2C3=C(C(=O)CCC3)C(c3cccc(C4C5=C(CCCC5=O)N(c5cccc(C#N)c5)C5=C4C(=O)CCC5)c3)C3=C2CCCC3=O)c1")
"10 mm"
>>> assay_value("CC1(C)S[C@@H]2[C@H](NC(=O)[C@H](N)c3ccccc3)C(=O)N2[C@H]1C(=O)O")
"23 mm"

---

test system: Bacillus subtilis; assay: Antibacterial activity against Bacillus subtilis RSKK 240 after 24 hr by disk diffusion method; assay type: functional; further: test concentration or dose not given here
Active and inactive are the calls of the source. The rule behind the calls is not given here.
Experimental readout: diameter of the inhibition zone (DIZ)

>>> assay_value("COc1cccc(N2C3=C(C(=O)CC(C)(C)C3)C(c3cccc(C4C5=C(CC(C)(C)CC5=O)N(c5cccc(OC)c5)C5=C4C(=O)CC(C)(C)C5)c3)C3=C2CC(C)(C)CC3=O)c1")
"inactive"
>>> assay_value("CC1(C)CC(=O)C2=C(C1)N(c1ccc(Cl)cc1)C1=C(C(=O)CC(C)(C)C1)C2c1ccc(C2C3=C(CC(C)(C)CC3=O)N(c3ccc(Cl)cc3)C3=C2C(=O)CC(C)(C)C3)cc1")
"inactive"
>>> assay_value("COc1ccccc1N1C2=C(C(=O)CC(C)(C)C2)C(c2cccc(C3C4=C(CC(C)(C)CC4=O)N(c4ccccc4OC)C4=C3C(=O)CC(C)(C)C4)c2)C2=C1CC(C)(C)CC2=O")
"8 mm"
>>> assay_value("CC1(C)CC(=O)C2=C(C1)N(c1cccc(C#N)c1)C1=C(C(=O)CC(C)(C)C1)C2c1cccc(C2C3=C(CC(C)(C)CC3=O)N(c3cccc(C#N)c3)C3=C2C(=O)CC(C)(C)C3)c1")
"inactive"
>>> assay_value("CC1(C)CC(=O)C2=C(C1)N(c1cccc(C(=O)O)c1)C1=C(C(=O)CC(C)(C)C1)C2c1cccc(C2C3=C(CC(C)(C)CC3=O)N(c3cccc(C(=O)O)c3)C3=C2C(=O)CC(C)(C)C3)c1")
"9 mm"

---

system: Bacillus subtilis; assay: Antibacterial activity against Bacillus subtilis RSKK 240 after 24 hr by disk diffusion method; assay type: functional; further: test concentration or dose not given here
Activity calls are given as the source filed them. The calls are words filed in the database; no cut-off is given here.
Experimental readout: diameter of the inhibition zone (DIZ)

>>> assay_value("COc1ccccc1N1C2=C(C(=O)CCC2)C(c2cccc(C3C4=C(CCCC4=O)N(c4ccccc4OC)C4=C3C(=O)CCC4)c2)C2=C1CCCC2=O")
"inactive"
>>> assay_value("N#Cc1cccc(N2C3=C(C(=O)CCC3)C(c3cccc(C4C5=C(CCCC5=O)N(c5cccc(C#N)c5)C5=C4C(=O)CCC5)c3)C3=C2CCCC3=O)c1")
"inactive"
>>> assay_value("CC1(C)CC(=O)C2=C(C1)N(c1ccc(Br)cc1)C1=C(C(=O)CC(C)(C)C1)C2c1ccc(C2C3=C(CC(C)(C)CC3=O)N(c3ccc(Br)cc3)C3=C2C(=O)CC(C)(C)C3)cc1")
"inactive"
>>> assay_value("CC1(C)CC(=O)C2=C(C1)N(c1ccc(C(=O)O)cc1)C1=C(C(=O)CC(C)(C)C1)C2c1cccc(C2C3=C(CC(C)(C)CC3=O)N(c3ccc(C(=O)O)cc3)C3=C2C(=O)CC(C)(C)C3)c1")
"11 mm"
>>> assay_value("CC1(C)CC(=O)C2=C(C1)N(c1ccccc1C#N)C1=C(C(=O)CC(C)(C)C1)C2c1cccc(C2C3=C(CC(C)(C)CC3=O)N(c3ccccc3C#N)C3=C2C(=O)CC(C)(C)C3)c1")
"inactive"
>>> assay_value("Cc1cccc(N2C3=C(C(=O)CCC3)C(c3cccc(C4C5=C(CCCC5=O)N(c5cccc(C)n5)C5=C4C(=O)CCC5)c3)C3=C2CCCC3=O)n1")
"inactive"
>>> assay_value("COc1cccc(N2C3=C(C(=O)CCC3)C(c3cccc(C4C5=C(CCCC5=O)N(c5cccc(OC)c5)C5=C4C(=O)CCC5)c3)C3=C2CCCC3=O)c1")
"11 mm"
>>> assay_value("O=C1CCCC2=C1C(c1cccc(C3C4=C(CCCC4=O)N(c4ccc(C(=O)O)cc4)C4=C3C(=O)CCC4)c1)C1=C(CCCC1=O)N2c1ccc(C(=O)O)cc1")
"8 mm"
